Values compiled from PubChem BioAssay AID493014.

- assay_method_text: qHTS Assay to Find Inhibitors of Chronic Active B-Cell Receptor Signaling
- test_context: ABC-DLBCL IkBa-CBG/CBR reporter, luminescence ratio, 4 h; series mostly up to 46.1 µM
Screen size: about 340,000 compounds; about 170 (0.05%) were called active. Another 26% or so got no clear call; they are omitted. Calls come from the whole dose curve; as a rule, active = well fitted inhibition curve with a large enough effect in the signal ratio, with a control signal flat (not every such curve was filed as active); inconclusive = small, poorly fitted or top-dose-only effect, or effect the other way, or a change in a side signal; inactive = flat fitted curve, though single readings scatter; the % refers to the signal ratio. The entries come from a sample that favours actives as a whole.
Tick one outcome: class 1 (active), class 0 (inactive)

compound=CCN1C(=O)[C@@H]2[C@@H](c3ccc(-c4cccc(Cl)c4)cc3)N3CCC[C@@]3(C(=O)OC)[C@@H]2C1=O cat="class 0"

For the next question, use this compound.
Req: # outcome recorded in this test, key = COc1ccc(CCN(C)C(=O)C23CC4CC(CC(Cl)(C4)C2)C3)cc1OC
Resp: class 0

###

- assay_method_text: qHTS Assay to Find Inhibitors of Chronic Active B-Cell Receptor Signaling
- test_context: ABC-DLBCL IkBa-CBG/CBR reporter, luminescence ratio, 4 h; series mostly up to 46.1 µM
The whole screen tested about 340,000 compounds, of which about 170 (0.05%) were called active. Inconclusive results (about 26%) are left out. Calls follow the shape of the dose curve; as a rule, active = well fitted inhibition curve with a large enough effect in the signal ratio, with a control signal flat (not every such curve was filed as active); inconclusive = small, poorly fitted or top-dose-only effect, or effect the other way, or a change in a side signal; inactive = flat fitted curve, though single readings scatter; the % refers to the signal ratio. For the sample, actives were picked, then their nearest neighbours and some compounds at random.
A correct response names exactly one class from Yes (active), No (inactive)

compound=O=C(CN(Cc1ccc(Br)cc1)S(=O)(=O)c1ccccc1)NCc1ccncc1 cat=No
compound=Cn1c2cc(B(O)O)sc2c2cnn(Cc3ccccc3F)c(=O)c21 cat=No
compound=Cc1ccc(CNC(=O)Cn2cnc3c(NCc4ccccc4)ncnc32)o1 cat=No
compound=COc1ccc(-c2c(-c3cc(OC)cc(OC)c3)n(C)c3ccc(-c4ccn[nH]4)cc23)cc1 cat=No

Req: Please state the recorded outcome for this compound: COc1ccc(NC(=O)CCC(=O)N2CCN(S(=O)(=O)c3ccc(C)cc3)CC2)c(OC)c1
Resp: No

Req: What outcome does the record of this test show for COc1ccc(S(=O)(=O)N2CCCCC2)cc1NC(=O)c1cc([N+](=O)[O-])ccc1N1CCOCC1 ?
Resp: No

Req: // return assay outcome for CC(C)n1ncc2c(C(=O)Nc3ccc(CC#N)cc3)cc(C3CC3)nc21
Resp: No

###

- assay_method_text: qHTS Assay to Find Inhibitors of Chronic Active B-Cell Receptor Signaling
- test_context: ABC-DLBCL IkBa-CBG/CBR reporter, luminescence ratio, 4 h; series mostly up to 46.1 µM
The whole screen tested about 340,000 compounds, of which about 170 (0.05%) were called active. Not shown: some 26% with an inconclusive outcome. Calls come from the whole dose curve; as a rule, active = well fitted inhibition curve with a large enough effect in the signal ratio, with a control signal flat (not every such curve was filed as active); inconclusive = small, poorly fitted or top-dose-only effect, or effect the other way, or a change in a side signal; inactive = flat fitted curve, though single readings scatter; the % refers to the signal ratio. This excerpt belongs to a sample that is enriched for actives.
Classes to choose from: active, inactive

Req: Hello, I am checking results. What call was entered for O=C(NCc1ccccc1CN1CCCC1)C1CCN(S(=O)(=O)c2ccc(Cl)cc2)CC1 ?
Resp: inactive

Req: Which outcome was entered for the compound NC(=O)c1ccccc1N(Cc1ccccc1)S(=O)(=O)c1ccccc1 in this test?
Resp: inactive

Req: Would you mind telling me which call this test gave CCOC(=O)N1CCN(C(=O)c2ccccc2N(Cc2ccccc2)S(=O)(=O)c2ccc(OC)cc2)CC1 ?
Resp: active

Req: Short answer needed: outcome of this test for O=C(COC(=O)c1c(Cl)cccc1Cl)Nc1cccc(S(=O)(=O)NC2=NCCCCC2)c1 ?
Resp: inactive

Req: # fetch the recorded call for COc1ccc(-c2nc3c(s2)CCc2onc(-c4ccc(OC)cc4)c2-3)cc1 here
Resp: inactive

###

- assay_method_text: qHTS Assay to Find Inhibitors of Chronic Active B-Cell Receptor Signaling
- test_context: ABC-DLBCL IkBa-CBG/CBR reporter, luminescence ratio, 4 h; series mostly up to 46.1 µM
Among all 340,000 compounds or so, about 170 (0.05%) were called active. Another 26% or so got no clear call; they are omitted. Calls follow the shape of the dose curve; as a rule, active = well fitted inhibition curve with a large enough effect in the signal ratio, with a control signal flat (not every such curve was filed as active); inconclusive = small, poorly fitted or top-dose-only effect, or effect the other way, or a change in a side signal; inactive = flat fitted curve, though single readings scatter; the % refers to the signal ratio. Only a selection was taken, and actives are over-represented in it overall.
Bench note: report the call from active, inactive

Req: Recorded call for COc1ccc(/C=C(\C#N)C(=O)NCCCn2ccnc2)cc1 ?
Resp: inactive

Req: Which result was noted for this compound in the test: COC(=O)[C@]1(C)N[C@H](c2ccc(-c3ccc(Cl)c(Cl)c3)cc2)[C@@H]2C(=O)N(C)C(=O)[C@@H]21
Resp: inactive

###

- assay_method_text: qHTS Assay to Find Inhibitors of Chronic Active B-Cell Receptor Signaling
- test_context: ABC-DLBCL IkBa-CBG/CBR reporter, luminescence ratio, 4 h; series mostly up to 46.1 µM
Hit rate of the full screen: of about 340,000 compounds, about 170 (0.05%) were called active. Not shown: some 26% with an inconclusive outcome. The call rests on the fitted dose curve; in most records, active means well fitted inhibition curve with a large enough effect in the signal ratio, with a control signal flat (not every such curve was filed as active); inconclusive means small, poorly fitted or top-dose-only effect, or effect the other way, or a change in a side signal; inactive means flat fitted curve, though single readings scatter; the % refers to the signal ratio. Shown is part of a subset that was picked to be rich in actives.
// one of True for active, False for inactive, no free text

compound=CC/C(=N\NC(=S)NC(C)C)c1ccc(OC(F)F)cc1 cat=True
compound=O=C(COC(=O)COc1cccc(F)c1)NCC1CCCCC1 cat=False
compound=Oc1ccccc1CN1CCN(C(c2ccccc2)c2ccccc2)CC1 cat=False
compound=COc1cccc(C2=CC(=O)C[C@H](c3ccc(OC)c(OC)c3)C2)c1 cat=False
compound=Fc1ccccc1-c1cc2cc3c(cc2cn1)OCO3 cat=False
compound=CN(C)S(=O)(=O)c1cccc(NC(=O)COc2ccc3ccccc3c2)c1 cat=False
compound=CC(C)(C)OC(=O)C[C@@H]1C/C=C\C[C@@H](CC(=O)N[C@H](CO)Cc2ccccc2)C(=O)NCCOC1=O cat=False
compound=COc1cc(/C=C2\Oc3ccc(C#Cc4ccc(O)cc4)cc3C2=O)cc(OC)c1 cat=False

Req: Name the outcome recorded for COc1ccc(CNC(=O)C[C@H]2C[C@H](C(=O)N3CCOCC3)[C@@]3(C)c4[nH]c5cc(CCC(=O)N(C)C)ccc5c4CCN3C2=O)cc1OC in the assay.
Resp: False

Req: Would you mind telling me which call this test gave Cc1ccc2c(CN3CCN(S(=O)(=O)c4ccccc4C(F)(F)F)CC3)cc(=O)oc2c1 ?
Resp: False

Req: Short answer needed: outcome of this test for Cc1ccc(NC(=O)CCC(=O)N2CCC(c3ccccc3)=N2)cc1S(=O)(=O)N1CCCCC1 ?
Resp: False

Req: What is the recorded call for this compound in the test? Cc1ccnc(N2C(=O)c3ccc([N+](=O)[O-])cc3C2=O)c1
Resp: False

Req: Hey, what did the test say about COc1cc(C(c2c(NC(=O)c3ccco3)sc(C)c2C)N2CCOCC2)cc(OC)c1OC (configuration not stated) ?
Resp: False

Req: Which outcome was assigned to Cc1cccc(C)c1Nc1nnc(SCC(=O)NCCCN2CCCC2=O)s1 in this test?
Resp: False

Req: Which outcome was assigned to COc1cc(C#Cc2ccc3cc(CCCO)oc(=O)c3c2)cc(OC)c1 in this test?
Resp: True

Req: Look up the recorded call for CCCCCCSc1ccc([C@@H]2[C@@H]3C(=O)N(CC)C(=O)[C@@H]3[C@]3(C(=O)OC)CCCCN23)cc1OC in this test.
Resp: False

###

- assay_method_text: qHTS Assay to Find Inhibitors of Chronic Active B-Cell Receptor Signaling
- test_context: ABC-DLBCL IkBa-CBG/CBR reporter, luminescence ratio, 4 h; series mostly up to 46.1 µM
In all, about 340,000 compounds went through this assay and about 170 (0.05%) were called active. Inconclusive results (about 26%) are left out. Calls follow the shape of the dose curve; as a rule, active = well fitted inhibition curve with a large enough effect in the signal ratio, with a control signal flat (not every such curve was filed as active); inconclusive = small, poorly fitted or top-dose-only effect, or effect the other way, or a change in a side signal; inactive = flat fitted curve, though single readings scatter; the % refers to the signal ratio. The full list was thinned out, with actives kept by preference.
Please reply with one of these outcomes: active, inactive

compound="CC1CCc2sc(C(=O)NCC(c3ccco3)N3CCCCC3)cc2C1 (stereo unspecified)" cat=inactive
compound=Cc1ccc(-n2ncc(C(=O)NC3CC3)c2C2CCN(C(=O)OC(C)(C)C)CC2)c(C)c1 cat=inactive
compound="Cc1cc(Cl)c2oc(C(=O)N(C)C(C)c3ccccn3)c(C)c2c1 (stereo unspecified)" cat=inactive
compound=COc1ccc(NC(=O)c2sc(N)nc2-c2ccccc2)cc1 cat=active

Req: Call for entry Cc1ccc2nc(NC(=O)CSc3nc(=O)n(CCCN(C)C)c4c3CCC4)sc2c1 :
Resp: inactive

Req: Which outcome did this test record for the compound COc1ccc(S(=O)(=O)N2CCCCCC2)cc1NC(=O)Cc1ccc(OC)c(OC)c1 ?
Resp: inactive
